molecular target: T1, CD44 (cluster of differentiation 44) (human, UniProt P16070 21-742); test: flow cytometry, labeled peptide 0-200 nM on SK-Hep1 human HCC cells; apparent dissociation constant
T1 construct: whole, on cells; Endogenous target on human HCC cells and tissues; no recombinant protein was used
T1 sequence (P16070 21-742): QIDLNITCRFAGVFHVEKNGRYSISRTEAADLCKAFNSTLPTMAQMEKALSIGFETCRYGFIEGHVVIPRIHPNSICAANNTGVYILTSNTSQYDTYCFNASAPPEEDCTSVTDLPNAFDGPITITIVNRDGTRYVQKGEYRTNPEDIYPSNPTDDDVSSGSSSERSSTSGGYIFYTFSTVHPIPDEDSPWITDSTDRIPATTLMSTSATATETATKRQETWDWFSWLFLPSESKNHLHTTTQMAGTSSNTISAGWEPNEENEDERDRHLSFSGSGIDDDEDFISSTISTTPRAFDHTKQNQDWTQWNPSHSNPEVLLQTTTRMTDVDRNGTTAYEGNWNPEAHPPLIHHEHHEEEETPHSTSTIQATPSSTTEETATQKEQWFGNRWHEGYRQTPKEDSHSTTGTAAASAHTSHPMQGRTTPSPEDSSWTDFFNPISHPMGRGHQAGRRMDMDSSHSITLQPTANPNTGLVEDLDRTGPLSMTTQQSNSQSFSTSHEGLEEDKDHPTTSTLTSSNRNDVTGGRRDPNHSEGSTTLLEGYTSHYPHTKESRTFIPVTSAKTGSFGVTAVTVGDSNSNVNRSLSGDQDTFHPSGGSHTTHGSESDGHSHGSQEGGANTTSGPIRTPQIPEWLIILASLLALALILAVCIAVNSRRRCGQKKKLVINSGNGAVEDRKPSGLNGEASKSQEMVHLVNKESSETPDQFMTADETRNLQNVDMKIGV
pKd: −log10 of the molar value. No end group written: not given here.

binder	pKd
WKGWSYLWTQQA (also: IRDye800 label, site not given here, also called IRDye800-labeled WKD* monomer peptide) [WKG*-IRDye800 (IRDye800-labeled WKG* peptide monomer, WKGWSYLWTQQA)]	7.37

From: patent US20260248969A1
